The values you see were collected from ChEMBL document CHEMBL1201862.

assay system: RNA-binding protein pos-1 (Caenorhabditis elegans, UniProt G5EF15)
Sequence (G5EF15 whole entry, the tested form may be a part): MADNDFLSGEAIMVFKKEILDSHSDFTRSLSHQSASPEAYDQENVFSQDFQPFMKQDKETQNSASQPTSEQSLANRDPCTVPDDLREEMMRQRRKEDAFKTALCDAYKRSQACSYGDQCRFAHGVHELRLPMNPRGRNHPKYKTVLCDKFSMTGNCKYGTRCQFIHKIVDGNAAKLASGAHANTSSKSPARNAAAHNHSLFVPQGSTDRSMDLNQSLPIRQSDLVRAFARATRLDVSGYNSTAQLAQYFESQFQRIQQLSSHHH
assay comment: inhibitors of POS-1/mex-3 RNA binding, dose response, biochemical, fluorescence polarization (AID 1964);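 also: purified POS-1 fused to maltose binding protein made in E. coli; potency of compounds blocking POS-1 binding to fluorescent RNA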
Activity calls are given as the source filed them.
measurement type: EC50

Some solved entries appear below for comparison.
INSERT INTO results (compound, recorded_result) VALUES
  ('Cc1ccc(S(=O)(=O)N2CCOCC2)cc1C(=O)Nc1ccc(S(=O)(=O)Nc2nccs2)cc1', '> 300 µM (not active)'),
  ('COC(=O)c1ccccc1-n1c(CCC(=O)O)ccc1-c1ccccc1', '> 300 µM (not active)'),
  ('O=C1c2ccccc2C(=O)N1CCCc1nc(-c2ccncc2)no1', '> 300 µM (not active)'),
  ('COc1ccc(C2C=C(c3ccc(Br)s3)Nc3ncnn32)cc1OC (stereo not given)', '7.82 µM (active)');

Then there is this compound:
Entry under test: CCC(=O)OC1(C)C(=O)C=C2C=C(CCCC(=O)OC)OC=C2C1=O (stereo not given) . Its EC50 was 27.8 µM (active)

====

assay system: UniProtKB P11940
Sequence (P11940 whole entry): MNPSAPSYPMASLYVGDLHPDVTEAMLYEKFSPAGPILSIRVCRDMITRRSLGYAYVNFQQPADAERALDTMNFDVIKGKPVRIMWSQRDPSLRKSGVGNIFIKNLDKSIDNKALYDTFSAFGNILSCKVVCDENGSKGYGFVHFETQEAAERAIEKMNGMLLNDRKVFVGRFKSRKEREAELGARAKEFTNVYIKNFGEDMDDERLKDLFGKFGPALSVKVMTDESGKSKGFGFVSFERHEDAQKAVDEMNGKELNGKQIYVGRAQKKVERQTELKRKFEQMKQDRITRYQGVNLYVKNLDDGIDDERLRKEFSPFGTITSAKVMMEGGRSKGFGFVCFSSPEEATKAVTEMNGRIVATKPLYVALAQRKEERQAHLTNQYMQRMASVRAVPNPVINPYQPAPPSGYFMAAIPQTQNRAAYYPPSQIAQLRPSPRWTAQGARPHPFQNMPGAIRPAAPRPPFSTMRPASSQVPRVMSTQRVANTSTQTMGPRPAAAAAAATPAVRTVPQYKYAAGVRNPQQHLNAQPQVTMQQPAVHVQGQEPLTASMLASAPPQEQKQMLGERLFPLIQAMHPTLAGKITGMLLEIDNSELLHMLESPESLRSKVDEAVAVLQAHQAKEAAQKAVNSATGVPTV
assay comment: PABP1 MLLE–PAM2 interaction inhibitors, dose response, miRNA deadenylation inhibitor project, biochemical, fluorescence polarization, Cy5-PAM2 peptide, secondary (AID 602260)
Format: functional
study conditions: read-out: IC50_Mean
The source made the active and inactive calls.
For each of the molecules below, state its IC50.

Worked set:
INSERT INTO results (molecule, recorded_result) VALUES
  ('CC(C)(C)NC(=O)CN(C(=O)CCN1CCCc2ccccc21)C(C)(C)C', '> 66 µM (inactive)'),
  ('O=C1C2=C(SCCS2)C(=O)N1CCCO', '> 66 µM (inactive)'),
  ('COc1ccc(NC(=O)c2ccco2)cn1', '> 66 µM (inactive)'),
  ('Cc1c(O)n(-c2ccc(F)cc2)c(SCC(=O)Nc2ccc3c4c(cccc24)CC3)nc1=O', '> 66 µM (inactive)'),
  ('CCCCc1c(O)n(-c2ccccc2)c(SCCN(C)C)nc1=O', '> 66 µM (inactive)');

Turning to the following molecule.
The recorded IC50 for entry O=C(O)CSC1CC(=O)N(c2ccc(Cl)c(Cl)c2)C1=O (stereo unspecified) equals > 66 µM (inactive)

====

assay system: Sentrin-specific protease 6 (Homo sapiens);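 also: Luminescence-based dose-response confirmatory assay of SENP6 inhibition, following up an ultra-high-throughput screen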
Sequence (Q9GZR1 whole entry): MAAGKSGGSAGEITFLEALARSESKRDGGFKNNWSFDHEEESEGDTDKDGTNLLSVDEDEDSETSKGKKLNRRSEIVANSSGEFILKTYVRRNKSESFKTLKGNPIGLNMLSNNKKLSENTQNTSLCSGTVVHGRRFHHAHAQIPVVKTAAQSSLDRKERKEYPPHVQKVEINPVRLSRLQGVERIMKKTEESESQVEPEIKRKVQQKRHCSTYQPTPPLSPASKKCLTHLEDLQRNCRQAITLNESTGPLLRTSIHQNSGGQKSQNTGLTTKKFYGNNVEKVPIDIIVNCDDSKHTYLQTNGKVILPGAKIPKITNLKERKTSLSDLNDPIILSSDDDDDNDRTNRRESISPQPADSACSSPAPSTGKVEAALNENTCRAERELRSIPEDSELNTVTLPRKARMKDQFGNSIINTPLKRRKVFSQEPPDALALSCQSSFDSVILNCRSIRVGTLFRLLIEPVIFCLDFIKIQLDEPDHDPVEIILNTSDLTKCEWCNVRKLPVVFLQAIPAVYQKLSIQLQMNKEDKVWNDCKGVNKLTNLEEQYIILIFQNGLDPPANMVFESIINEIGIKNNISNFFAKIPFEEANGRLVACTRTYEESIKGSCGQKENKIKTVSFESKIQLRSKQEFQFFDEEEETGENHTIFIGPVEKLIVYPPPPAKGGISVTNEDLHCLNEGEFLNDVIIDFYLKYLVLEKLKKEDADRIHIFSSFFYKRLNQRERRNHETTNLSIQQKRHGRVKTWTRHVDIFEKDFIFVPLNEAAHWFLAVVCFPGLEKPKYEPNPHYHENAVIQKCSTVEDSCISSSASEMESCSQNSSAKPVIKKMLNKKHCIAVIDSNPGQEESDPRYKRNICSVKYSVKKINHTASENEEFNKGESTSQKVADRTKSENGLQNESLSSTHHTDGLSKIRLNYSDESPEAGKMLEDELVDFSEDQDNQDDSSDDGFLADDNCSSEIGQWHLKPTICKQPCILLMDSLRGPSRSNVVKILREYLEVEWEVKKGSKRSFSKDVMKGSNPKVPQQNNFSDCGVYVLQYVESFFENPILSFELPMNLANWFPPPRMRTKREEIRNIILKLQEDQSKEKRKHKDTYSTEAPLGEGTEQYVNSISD
Format: functional
Calls of active or inactive are those of the source.
Answer with one of the outcomes active, inactive

Solved entries (count: 3):
INSERT INTO measurements (input_smiles, answer_label) VALUES
  ('COc1nc(C)ccc1-c1noc(-c2cccs2)n1', 'active'),
  ('Cc1ccc(NC(=O)C(=O)c2c[nH]c3ccccc23)cc1', 'inactive'),
  ('O=C(O)c1ccc(-c2nc(O)c3c(-c4ccccc4)csc3n2)cc1', 'active');

input: Write down the call the test reported for this compound. Item: COc1ccc2nc(NC(=O)c3ccc([N+](=O)[O-])o3)sc2c1
output: active

====

assay system: DNA (cytosine-5)-methyltransferase 1 (Homo sapiens, UniProt P26358)
Sequence (P26358 whole entry): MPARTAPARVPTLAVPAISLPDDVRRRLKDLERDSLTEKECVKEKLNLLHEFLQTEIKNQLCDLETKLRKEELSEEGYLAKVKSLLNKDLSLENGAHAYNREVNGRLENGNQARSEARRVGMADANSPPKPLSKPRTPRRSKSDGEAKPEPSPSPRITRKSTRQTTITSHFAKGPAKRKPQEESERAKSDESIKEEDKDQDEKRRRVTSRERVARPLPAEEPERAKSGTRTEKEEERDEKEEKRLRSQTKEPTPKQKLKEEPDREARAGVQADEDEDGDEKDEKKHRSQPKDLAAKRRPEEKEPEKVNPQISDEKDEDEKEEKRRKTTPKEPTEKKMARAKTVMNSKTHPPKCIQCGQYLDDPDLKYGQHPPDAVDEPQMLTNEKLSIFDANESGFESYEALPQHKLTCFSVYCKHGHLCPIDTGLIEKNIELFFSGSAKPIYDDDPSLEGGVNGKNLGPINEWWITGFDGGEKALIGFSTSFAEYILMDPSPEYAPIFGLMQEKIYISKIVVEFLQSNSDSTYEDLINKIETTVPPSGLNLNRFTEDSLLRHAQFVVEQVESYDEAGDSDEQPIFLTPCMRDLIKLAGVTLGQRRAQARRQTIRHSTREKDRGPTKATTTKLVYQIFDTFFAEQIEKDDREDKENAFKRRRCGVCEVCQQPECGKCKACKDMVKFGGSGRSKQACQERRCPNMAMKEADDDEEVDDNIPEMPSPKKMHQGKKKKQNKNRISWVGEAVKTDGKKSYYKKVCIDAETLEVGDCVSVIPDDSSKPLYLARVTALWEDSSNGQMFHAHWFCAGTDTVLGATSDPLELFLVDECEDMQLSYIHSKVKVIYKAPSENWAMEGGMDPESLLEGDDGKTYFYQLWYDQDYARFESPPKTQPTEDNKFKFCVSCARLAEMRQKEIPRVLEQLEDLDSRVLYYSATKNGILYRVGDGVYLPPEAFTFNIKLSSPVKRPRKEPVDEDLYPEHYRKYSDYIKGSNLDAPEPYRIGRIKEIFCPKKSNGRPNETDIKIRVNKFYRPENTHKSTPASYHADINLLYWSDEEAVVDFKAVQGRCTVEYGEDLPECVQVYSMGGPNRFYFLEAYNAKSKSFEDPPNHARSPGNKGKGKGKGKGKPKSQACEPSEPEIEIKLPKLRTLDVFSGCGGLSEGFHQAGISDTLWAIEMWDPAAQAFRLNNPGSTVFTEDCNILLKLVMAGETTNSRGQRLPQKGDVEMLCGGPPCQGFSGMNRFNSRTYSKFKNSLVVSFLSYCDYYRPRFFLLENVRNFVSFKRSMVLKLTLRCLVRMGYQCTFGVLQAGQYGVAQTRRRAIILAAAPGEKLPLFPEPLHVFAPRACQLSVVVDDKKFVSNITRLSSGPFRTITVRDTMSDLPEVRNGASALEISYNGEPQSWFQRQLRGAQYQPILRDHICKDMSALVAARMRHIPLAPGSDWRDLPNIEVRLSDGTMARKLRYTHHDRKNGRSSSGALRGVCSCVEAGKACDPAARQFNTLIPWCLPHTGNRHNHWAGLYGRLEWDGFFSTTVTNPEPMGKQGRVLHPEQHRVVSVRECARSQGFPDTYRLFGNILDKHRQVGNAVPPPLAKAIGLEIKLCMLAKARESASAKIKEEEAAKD
assay comment: DNMT1 methyltransferase inhibitors, confirmation, biochemical, fluorescent molecular beacon (AID 602386)
Format: functional
Calls of active or inactive are those of the source.
Pick one and only one: active, inactive

Example entries begin here.
INSERT INTO assay_data (input_smiles, answer_label) VALUES
  ('O=C(N/N=C/c1ccoc1)c1cc(O)cc(O)c1', 'active'),
  ('CCOC(=O)c1nn(-c2ccc(F)cc2)c(=O)cc1OCC(=O)Nc1ccc(OCC)cc1', 'inactive');

input: Please share the test call associated with O=C1NN(c2ccccc2)C(=O)/C1=C/c1ccc(Sc2cccc3ccccc23)o1 .
output: active

input: Name the outcome recorded for O=C(O)c1ccc(-n2cccc2/C=N\NC(=O)c2cc3cc(Br)ccc3o2)cc1 in the assay.
output: active

input: // param item: COC(=O)c1c(NC(=O)COC(=O)c2ccc(NC(=O)CC#N)cc2)sc2c1CCCCC2 ; yields the recorded call
output: active

input: How was O=C(O)CSc1cc(C(=O)c2ccccc2O)cn2c(=O)c3c4c(sc3nc12)CCCC4 classified in this test?
output: active

====

Tested on: P388;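 also: compound exposure lasted 48 hours before growth was measured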
assay comment: cells
Type: functional
study conditions: Mus musculus, P388
Activity calls are given as the source filed them.
measurement type: GI50

# annotated cases, reported GI50 shown
INSERT INTO assay_data (compound, measurement_type, recorded_result) VALUES
  ('NC1=NC(=O)/C(=C2\CCNC(=O)c3[nH]c(Br)cc32)N1', 'GI50', '3.97 µM (inactive)'),
  ('COc1cc2c(cc1OC)C(C(c1ccccc1)c1ccccc1)N(C)CC2 (stereo not given)', 'GI50', '24.5 µM (inactive)'),
  ('COC(C(=O)C(O)C(C)O)C1Cc2cc3cc(OC4CC(OC(C)=O)C(OC5CC(O)C(OC)C(C)O5)C(C)O4)cc(O)c3c(O)c2C(=O)C1OC1CC(OC2CC(OC3CC(C)(O)C(OC(=O)C(C)C)C(C)O3)C(O)C(C)O2)C(O)C(C)O1 (stereo not given)', 'GI50', '0.0123 µM (active)'),
  ('Oc1cc(O)cc(/C=C/c2ccc(O)c(O)c2)c1', 'GI50', '5.48 µM (inactive)');

// below: GI50 requested for another compound
I looked up CCOC(=O)c1c(C)c2c(n1C)CCc1c[nH]nc1-2 and its GI50 for P388 was > 100 µM (inactive)

====

assay system: Prothrombin (Homo sapiens, UniProt P00734)
assay comment: Thrombin 1536 HTS Dose Response Confirmation. [Related pubchem assays: 1046 (Thrombin 1536 HTS; hits were confirmed in this assay)]
Assay type: functional
Active and inactive are the calls of the source.
Kindly state IC50 for each of the entries shown.

INSERT INTO assay_data (compound, measurement_type, recorded_result) VALUES
  ('Cc1ccccc1NC(=O)CCl', 'IC50', '> 50 µM (not active)'),
  ('Oc1ccc(-c2nc3ccccc3s2)cc1', 'IC50', '> 50 µM (not active)'),
  ('CCC(C)[C@@H](NC(=O)OC(C)(C)C)c1nnc(S(=O)(=O)Cc2cccc(C)c2)o1 (stereo not given in full)', 'IC50', '3.23 µM (active)'),
  ('Cc1cc(C)c(S(=O)(=O)ON2C(=O)c3ccccc3C2=O)cc1C', 'IC50', '2.57 µM (active)');

Field: next compound
// field: IC50; key: CCn1cc(C(=O)NCc2ccc3c(c2)OCO3)c(=O)c2cc(S(=O)(=O)N3CCOCC3)ccc21 ; value = 0.158 µM (active)

====

assay system: Kappa-type opioid receptor (Homo sapiens, UniProt P41145)
Sequence (P41145 whole entry): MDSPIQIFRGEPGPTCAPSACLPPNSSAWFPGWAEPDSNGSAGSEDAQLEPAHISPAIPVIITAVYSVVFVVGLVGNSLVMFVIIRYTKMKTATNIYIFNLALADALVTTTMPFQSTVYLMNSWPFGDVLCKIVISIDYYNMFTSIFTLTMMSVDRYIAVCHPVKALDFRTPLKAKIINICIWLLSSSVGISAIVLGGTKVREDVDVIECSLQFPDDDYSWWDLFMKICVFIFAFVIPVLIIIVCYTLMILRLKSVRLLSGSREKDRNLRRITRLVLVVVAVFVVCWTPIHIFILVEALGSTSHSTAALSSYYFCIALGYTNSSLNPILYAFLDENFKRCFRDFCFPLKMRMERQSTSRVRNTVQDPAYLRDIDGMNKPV
Assay type: functional
measurement type: EC50 (µM)
Numbers only, in µM.

Record O=C(c1ccccn1)N(Cc1ccco1)C1(C(=O)NC2CCCC2)CCCCC1 . Reported EC50: 14.6

====

assay comment: cytotoxicity toward NIH3T3 fibroblasts, dose response, counter-screen, cell-based, ATP luminescence, mouse fibroblasts (AID 2010);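 also: cells exposed to compound for about 90 hours before reading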
Format: functional
The source made the active and inactive calls.
measurement type: EC50

Guide cases for EC50, answers given:
INSERT INTO results (molecule, recorded_result) VALUES
  ('NC(=S)N/N=C/c1ccc(-c2cc(Cl)ccc2Cl)o1', '> 60 µM (not active)'),
  ('COC(=O)c1ccc(OC)c(CN2CCCN(Cc3ccc(F)cc3)S2(=O)=O)c1', '> 30 µM (not active)'),
  ('O=C1S/C(=C\c2ccccc2)C(=O)N1CC(O)Cn1c2ccccc2c2ccccc21 (stereo not drawn)', '11.5 µM (active)');

List EC50 for every entry below, keeping the order given.
1. Cc1ccc(C)c(NC(=O)c2cccc(Oc3ccc([N+](=O)[O-])cc3Cl)c2)c1
2. N#Cc1c2ccc(O)cc2n2ccccc12
3. CCC(C)NCCOCCOc1ccc(Cl)c(C)c1C (stereo not drawn)

output:
1. > 30 µM (not active)
2. > 60 µM (not active)
3. 9.69 µM (active)

Please look at the items below and tell me EC50 for each one, in order.
1. CCOC(=O)C1CCCN(Cc2ccc(OCc3ccccc3)cc2)C1 (stereo not drawn)
2. CCOC(=O)C1CCCN(Cc2ccc(O)c(OC)c2)C1 (stereo not drawn)

output:
> 60 µM (not active)
> 60 µM (not active)

====

assay system: G-protein coupled receptor 55 (Homo sapiens, UniProt Q9Y2T6)
Sequence (Q9Y2T6 whole entry): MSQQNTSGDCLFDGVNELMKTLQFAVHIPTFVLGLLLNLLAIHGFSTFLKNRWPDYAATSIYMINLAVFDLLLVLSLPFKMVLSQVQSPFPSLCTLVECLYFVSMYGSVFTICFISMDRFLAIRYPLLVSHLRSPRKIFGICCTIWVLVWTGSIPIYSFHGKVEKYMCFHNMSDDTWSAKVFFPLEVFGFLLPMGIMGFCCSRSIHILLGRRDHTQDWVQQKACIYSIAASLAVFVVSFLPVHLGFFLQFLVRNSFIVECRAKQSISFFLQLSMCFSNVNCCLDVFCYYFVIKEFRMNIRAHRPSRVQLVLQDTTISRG
assay comment: GPR55 agonists via beta-arrestin recruitment, primary screen, imaging, U2OS cells, beta-arrestin-GFP redistribution (AID 1961)
Type: functional
The source made the active and inactive calls.
Write down the outcome that applies. Available outcomes: 1 = active, 0 = inactive

INSERT INTO assay_data (input_smiles, answer_label) VALUES
  ('CCc1ccc(Nc2n[n+](-c3ccccc3)c(-c3ccc(SC)cc3)s2)cc1', 0),
  ('Cc1occc1C(=O)Nc1ccc(OCc2ccccc2)cc1', 1),
  ('O=C(N[C@H]1CCC(=O)N([C@H](CSc2ccccc2)Cc2ccccc2)CC1)OCc1ccccc1', 1),
  ('COc1ccc2nc3cc(Cl)ccc3c(Nc3cc(C(C)C)c(O)cc3C)c2c1', 1),
  ('N#Cc1ccccc1Cn1cc(/C=C/[N+](=O)[O-])c2ccccc21', 1);

input: Can you look up the reported call for CCc1noc(C)c1C(=O)Nc1nc(-c2ccc(Cl)cc2Cl)cs1 for me?
output: 1

input: Dear colleague, could you share the recorded outcome for COc1ccccc1/C=C/C(=O)c1ccc(Cl)cc1 when you have a moment?
output: 0
